The measurements presented in this section are drawn from ChEMBL document CHEMBL1961873.

study.target: Serine/threonine-protein kinase Nek7 (Homo sapiens) (UniProt Q8TDX7);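 also: figures are averaged percent inhibition of NEK7 kinase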
Sequence (Q8TDX7 whole entry, looked up): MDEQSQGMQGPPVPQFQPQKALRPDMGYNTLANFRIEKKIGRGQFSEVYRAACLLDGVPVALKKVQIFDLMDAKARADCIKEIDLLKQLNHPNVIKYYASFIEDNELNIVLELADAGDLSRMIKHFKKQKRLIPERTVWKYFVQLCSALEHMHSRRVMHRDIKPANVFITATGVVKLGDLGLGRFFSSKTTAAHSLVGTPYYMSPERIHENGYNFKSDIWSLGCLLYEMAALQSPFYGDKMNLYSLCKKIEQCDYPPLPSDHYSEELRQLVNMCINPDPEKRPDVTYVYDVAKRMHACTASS
experimental.context: at 0.1 µM
Would you kindly list inhibition for each of these molecules?
Give bare numbers, in %.

Before answering, review these 8 worked examples.
In [3]: df
Out[3]:
                           molecular_string                              study_target  unit_descriptor  experimental_result
0  O=C(O[C@H]1CN[C@H](C#Cc2cc3ncnc(Nc4ccc(OCc5cccc(F)c5)c(Cl)c4)c3s2)C1)N1CCOCC1  Serine/threonine-protein kinase Nek7 (Homo sapiens) (UniProt Q8TDX7)                %                 4.68
1  COc1ccc2ncn(-c3cc(O[C@H](C)c4ccccc4C(F)(F)F)c(C(N)=O)s3)c2c1  Serine/threonine-protein kinase Nek7 (Homo sapiens) (UniProt Q8TDX7)                %                 1.25
2        FC(F)(F)CNc1nccc(-c2cnn3ncccc23)n1  Serine/threonine-protein kinase Nek7 (Homo sapiens) (UniProt Q8TDX7)                %                -1.64
3  CNC(=O)c1sc(-n2cnc3cc(OC)c(OC)cc32)cc1OCc1ccccc1C(F)(F)F  Serine/threonine-protein kinase Nek7 (Homo sapiens) (UniProt Q8TDX7)                %                 1.64
4  CNC(=O)c1ncccc1Nc1nc(Nc2cc3c(cc2OC)CCCN3C(=O)CN(C)C)nc2[nH]ccc12  Serine/threonine-protein kinase Nek7 (Homo sapiens) (UniProt Q8TDX7)                %                 3.53
5    CCn1c(-c2nonc2N)nc2cncc(C(=O)NCCNC)c21  Serine/threonine-protein kinase Nek7 (Homo sapiens) (UniProt Q8TDX7)                %                  3.5
6  Fc1cccc(COc2ccc(Nc3ncncc3C#Cc3ccccc3)cc2Cl)c1  Serine/threonine-protein kinase Nek7 (Homo sapiens) (UniProt Q8TDX7)                %                 2.36
7  NC(=O)c1ccc2c(-c3ccnc(NCCCO)n3)c(-c3ccc(F)cc3)nn2c1  Serine/threonine-protein kinase Nek7 (Homo sapiens) (UniProt Q8TDX7)                %                 6.38

Give inhibition for all molecules that follow.
1. OCCCNc1nccc(-c2c(-c3ccc(F)cc3)nn3cc(C(F)(F)F)ccc23)n1
2. Cc1c2ccc(N(C)c3ccnc(Nc4cccc(S(N)(=O)=O)c4)n3)cc2nn1C

2.99
5.3
